- Tested on: U251 (human glioblastoma)
// assign condition met if GI50 falls strictly below 80 µM, else condition not met (ties count as condition not met)

molecule: C=CCN1C(=O)[C@H](OCc2ccccc2)[C@@H](OCc2ccccc2)[C@H](OCc2ccccc2)[C@H]1COS(=O)(=O)c1ccc(C)cc1
group label: condition not met

molecule: CCCN1C(=O)C(OC(C)=O)C(OC(C)=O)C(OC(C)=O)C1CNC(=O)Nc1ccc(F)cc1 (stereo not shown)
group label: condition met

molecule: C=CCN1C[C@H](OCc2ccccc2)[C@@H](OCc2ccccc2)[C@H](OCc2ccccc2)[C@H]1CN1CCOCC1
group label: condition met

molecule: CCCN1C(=O)[C@H](O)[C@@H](O)[C@H](O)[C@H]1CNC(=O)Nc1ccccc1
group label: condition not met

molecule: CCCN1C(=O)[C@H](OCc2ccccc2)[C@@H](OCc2ccccc2)[C@H](OCc2ccccc2)[C@H]1CNC(=S)Nc1ccccc1
group label: condition met

Q. Does the reported GI50 of CCCN1C(=O)[C@H](O)[C@@H](O)[C@H](O)[C@H]1CNC(=O)Nc1ccc(F)cc1F stay below 80 µM?
A. condition not met

Q. Does the reported GI50 of CCCN1C(=O)[C@H](OCc2ccccc2)[C@@H](OCc2ccccc2)[C@H](OCc2ccccc2)[C@H]1COC(=O)CN1C(=O)CCCC1=O stay below 80 µM?
A. condition met

* * *

Hi! I'm sharing some log10(GI50) results obtained with U251 (human glioblastoma).
Quick note: numbers are log10 of GI50, with µM as the unit.

molecule: CCCN1C(=O)[C@H](OCc2ccccc2)[C@@H](OCc2ccccc2)[C@H](OCc2ccccc2)[C@H]1CNC(=O)Nc1ccc(C)cc1 [Compound No. 6]
tested system: U251 (human glioblastoma)
recorded value: 1.92

# batch: return log10(GI50) for each of the 5 molecules below
1. CCCN1C(=O)[C@H](OCc2ccccc2)[C@@H](OCc2ccccc2)[C@H](OCc2ccccc2)[C@H]1CNC(=O)Cn1ncn(-c2ccc(Cl)cc2)c1=O [Compound No. 57]
2. C=CCN1C(=O)[C@H](OCc2ccccc2)[C@@H](OCc2ccccc2)[C@H](OCc2ccccc2)[C@H]1Cn1ccnn1 [Compound No. 69]
3. CCCN1C[C@H](O)[C@@H](O)[C@H](O)[C@H]1Cn1ccnn1 [Compound No. 73]
4. CCCN1C[C@H](OCc2ccccc2)[C@@H](OCc2ccccc2)[C@H](OCc2ccccc2)[C@H]1CNC(=O)Nc1ccc(Cl)cc1 [Compound No. 36]
5. CCCN1C(=O)[C@H](OCc2ccccc2)[C@@H](OCc2ccccc2)[C@H](OCc2ccccc2)[C@H]1CNC(=O)Nc1c(Cl)cc(Cl)cc1Cl [Compound No. 17]

A.
1: 2.19; 2: 1.58; 3: 2.70; 4: 1.07; 5: 2.31
